For each of the binders below, state its C3b Dep (nM), human serum, IC50.
# TARGET: human complement C3b protein (human, UniProt P01024 23-667; P01024 749-1663)
# Sequence (P01024 23-667 P314L, chain 1 of 2): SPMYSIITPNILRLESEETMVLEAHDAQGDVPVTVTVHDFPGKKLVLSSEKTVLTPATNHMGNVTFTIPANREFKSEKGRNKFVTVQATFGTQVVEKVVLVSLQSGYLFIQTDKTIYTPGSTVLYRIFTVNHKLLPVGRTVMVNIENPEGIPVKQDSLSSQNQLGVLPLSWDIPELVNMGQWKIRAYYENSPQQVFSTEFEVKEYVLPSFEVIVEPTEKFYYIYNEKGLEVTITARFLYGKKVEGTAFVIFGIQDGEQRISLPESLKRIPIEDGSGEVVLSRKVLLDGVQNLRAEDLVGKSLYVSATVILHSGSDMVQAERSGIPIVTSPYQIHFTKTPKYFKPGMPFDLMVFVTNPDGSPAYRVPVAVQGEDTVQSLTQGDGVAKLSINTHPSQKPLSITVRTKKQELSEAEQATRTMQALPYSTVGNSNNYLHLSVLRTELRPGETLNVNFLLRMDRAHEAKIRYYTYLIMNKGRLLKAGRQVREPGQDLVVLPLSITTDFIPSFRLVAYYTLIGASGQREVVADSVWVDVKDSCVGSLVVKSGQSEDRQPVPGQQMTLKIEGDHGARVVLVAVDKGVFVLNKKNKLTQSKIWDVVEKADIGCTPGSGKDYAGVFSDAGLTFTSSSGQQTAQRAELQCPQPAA
# Sequence (P01024 749-1663, chain 2 of 2): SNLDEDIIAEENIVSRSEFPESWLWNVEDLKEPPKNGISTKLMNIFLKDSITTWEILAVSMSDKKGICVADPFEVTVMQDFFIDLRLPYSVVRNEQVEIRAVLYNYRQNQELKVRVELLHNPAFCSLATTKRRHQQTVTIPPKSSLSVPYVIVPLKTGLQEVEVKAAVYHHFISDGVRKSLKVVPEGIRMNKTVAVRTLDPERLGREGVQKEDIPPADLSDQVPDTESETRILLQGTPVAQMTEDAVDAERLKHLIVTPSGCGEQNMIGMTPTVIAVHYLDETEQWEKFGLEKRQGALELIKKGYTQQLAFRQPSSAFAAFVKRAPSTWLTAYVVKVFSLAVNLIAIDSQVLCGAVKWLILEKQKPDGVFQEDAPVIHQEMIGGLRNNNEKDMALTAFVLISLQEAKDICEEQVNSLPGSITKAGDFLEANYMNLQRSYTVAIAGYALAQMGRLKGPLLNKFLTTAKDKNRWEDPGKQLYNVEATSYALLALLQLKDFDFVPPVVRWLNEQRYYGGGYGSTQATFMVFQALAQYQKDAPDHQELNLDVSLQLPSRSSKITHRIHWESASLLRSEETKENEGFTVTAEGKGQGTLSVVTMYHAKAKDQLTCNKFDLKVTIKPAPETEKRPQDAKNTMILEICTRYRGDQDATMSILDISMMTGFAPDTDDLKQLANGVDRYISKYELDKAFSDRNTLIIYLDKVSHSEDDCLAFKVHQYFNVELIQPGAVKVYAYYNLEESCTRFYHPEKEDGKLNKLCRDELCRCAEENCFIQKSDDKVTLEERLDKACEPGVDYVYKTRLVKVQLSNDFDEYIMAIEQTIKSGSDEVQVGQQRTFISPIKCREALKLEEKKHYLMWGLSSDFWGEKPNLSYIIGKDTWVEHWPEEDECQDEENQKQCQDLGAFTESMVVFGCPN
# ASSAY TEXT: cell-based or functional assay

**Query** Which measured C3b Dep (nM), human serum, IC50 value corresponds to MOR09423 Fab (Fab, V domains shown, also called Fab 9423) VH: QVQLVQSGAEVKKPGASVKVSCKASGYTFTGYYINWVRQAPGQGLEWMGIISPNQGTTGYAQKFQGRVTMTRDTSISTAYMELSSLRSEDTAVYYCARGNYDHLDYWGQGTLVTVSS VL: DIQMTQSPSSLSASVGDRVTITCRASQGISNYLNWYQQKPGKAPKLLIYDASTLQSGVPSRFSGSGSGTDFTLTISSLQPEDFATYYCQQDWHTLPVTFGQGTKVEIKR ?
**Result** 14 nM

**Query** Which measured C3b Dep (nM), human serum, IC50 value corresponds to MOR09136 Fab (Fab, V domains shown, also called Fab 9136) VH: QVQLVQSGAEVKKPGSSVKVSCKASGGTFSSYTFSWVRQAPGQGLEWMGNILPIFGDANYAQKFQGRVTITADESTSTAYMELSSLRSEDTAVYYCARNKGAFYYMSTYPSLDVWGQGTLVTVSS VL: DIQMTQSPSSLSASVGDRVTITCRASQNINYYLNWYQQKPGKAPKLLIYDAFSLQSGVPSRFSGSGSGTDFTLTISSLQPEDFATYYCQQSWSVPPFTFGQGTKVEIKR ?
**Result** 8 nM

**Query** Which measured C3b Dep (nM), human serum, IC50 value corresponds to MOR09397 Fab (Fab, V domains shown, also called Fab 9397) VH: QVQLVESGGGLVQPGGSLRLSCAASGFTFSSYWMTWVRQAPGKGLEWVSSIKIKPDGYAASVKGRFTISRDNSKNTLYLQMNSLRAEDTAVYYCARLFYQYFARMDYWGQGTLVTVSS VL: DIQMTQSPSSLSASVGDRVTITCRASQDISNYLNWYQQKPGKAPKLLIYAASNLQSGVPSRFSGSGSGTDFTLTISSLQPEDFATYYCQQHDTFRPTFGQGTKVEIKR ?
**Result** 13 nM
